system: RSV (long strain, VR-26); test: CPE reduction assay, in vitro antiviral activity against RSV; format: cell-based, respiratory syncytial virus; conditions: ratio of CC50 to IC50

>  <Molecule>
O=C1C=C2O[C@H](c3ccc(O)cc3)[C@@]3(O)C(=O)c4c(O)cc(O)cc4O[C@@]23C2=C1C[C@H](O)[C@@H](c1ccc(O)cc1)O2 [Compound III, genkwanol C]

>  <Tested On>
RSV (long strain, VR-26)

>  <SI>
21.9

$$$$
>  <Molecule>
O=C1C=C2O[C@H](c3ccc(O)cc3)[C@@]3(O)C(=O)c4c(O)cc(O)cc4O[C@@]23C2=C1C[C@@H](O)[C@@H](c1ccc(O)cc1)O2 [Compound IV, stelleranol]

>  <Tested On>
RSV (long strain, VR-26)

>  <SI>
15.8

$$$$
>  <Molecule>
NC(=O)c1ncn([C@@H]2O[C@H](CO)[C@@H](O)[C@H]2O)n1 [Ribavirin, reference compound]

>  <Tested On>
RSV (long strain, VR-26)

>  <SI>
21.6

$$$$
>  <Molecule>
O=C1C=C2O[C@@H](c3ccc(O)cc3)[C@]3(O)C(=O)c4c(O)cc(O)cc4O[C@]23C2=C1C[C@H](O)[C@@H](c1ccc(O)cc1)O2 [Compound II, genkwanol B]

>  <Tested On>
RSV (long strain, VR-26)

>  <SI>
11.0

$$$$
